Catalogue of binders with associated IC50 (µg/mL), pseudovirus neutralization
Biological target: HIV-1 APV-13 Env (clade B pseudovirus) (HIV-1)
Assay: cell-based or functional assay

| BINDER | IC50 (µg/mL), pseudovirus neutralization |
| --- | --- |
| 1496_C09 (PG9) (TCN-109) (antibody, V domains shown) VH: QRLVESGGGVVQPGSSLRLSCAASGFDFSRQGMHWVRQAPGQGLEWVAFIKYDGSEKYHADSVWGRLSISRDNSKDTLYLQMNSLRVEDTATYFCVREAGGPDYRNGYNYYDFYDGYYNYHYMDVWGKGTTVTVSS VL: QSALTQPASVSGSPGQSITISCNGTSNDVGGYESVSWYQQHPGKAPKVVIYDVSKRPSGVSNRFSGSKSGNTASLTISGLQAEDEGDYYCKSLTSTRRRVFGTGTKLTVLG | > 50 µg/mL |

Entry 1456_P20 (PG20) (antibody, human IgG1, kappa, V domains shown) VH: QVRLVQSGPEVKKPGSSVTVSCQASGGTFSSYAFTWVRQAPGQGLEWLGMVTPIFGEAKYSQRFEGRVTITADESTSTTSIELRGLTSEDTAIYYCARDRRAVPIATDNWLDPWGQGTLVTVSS VL: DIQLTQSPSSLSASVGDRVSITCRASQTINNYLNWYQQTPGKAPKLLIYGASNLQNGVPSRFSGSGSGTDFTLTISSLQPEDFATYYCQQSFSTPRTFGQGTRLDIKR , IC50 (µg/mL), pseudovirus neutralization reported as > 50 µg/mL

In plain terms, 1443_C16 (PG16) (TCN-116) (antibody, V domains shown) VH: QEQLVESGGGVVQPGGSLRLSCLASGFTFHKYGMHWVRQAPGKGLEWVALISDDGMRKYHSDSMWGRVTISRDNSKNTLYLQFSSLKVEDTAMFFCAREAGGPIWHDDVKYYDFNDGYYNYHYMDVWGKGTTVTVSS VL: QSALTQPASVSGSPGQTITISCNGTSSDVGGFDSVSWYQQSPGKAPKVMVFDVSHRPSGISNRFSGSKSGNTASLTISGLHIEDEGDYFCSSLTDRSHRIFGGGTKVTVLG has a documented IC50 (µg/mL), pseudovirus neutralization of > 50 µg/mL

IC50 (µg/mL), pseudovirus neutralization reading for 1460_G14 (PGG14) (antibody, human IgG1, kappa, V domains shown) VH: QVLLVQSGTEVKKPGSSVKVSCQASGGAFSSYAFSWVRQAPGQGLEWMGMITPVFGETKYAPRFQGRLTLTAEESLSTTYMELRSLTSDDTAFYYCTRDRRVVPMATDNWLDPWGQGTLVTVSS VL: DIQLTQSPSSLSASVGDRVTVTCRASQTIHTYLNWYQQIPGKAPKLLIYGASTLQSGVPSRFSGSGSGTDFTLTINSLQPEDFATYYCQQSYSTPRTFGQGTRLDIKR : > 50 µg/mL

Sure, the documented IC50 (µg/mL), pseudovirus neutralization for 1495_C14 (PGC14) (antibody, human IgG1, lambda, V domains shown) VH: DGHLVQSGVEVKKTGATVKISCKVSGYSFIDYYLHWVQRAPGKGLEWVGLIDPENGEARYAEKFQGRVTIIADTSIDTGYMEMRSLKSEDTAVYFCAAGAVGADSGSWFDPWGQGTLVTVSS VL: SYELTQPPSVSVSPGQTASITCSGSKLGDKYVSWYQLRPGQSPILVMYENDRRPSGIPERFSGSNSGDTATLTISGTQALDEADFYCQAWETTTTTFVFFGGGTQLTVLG is > 50 µg/mL
